target: Delta-type opioid receptor (Homo sapiens, UniProt P41143); assay: Displacement of [3H]-NTI from delta opioid receptor expressed in CHO cells after 1 hr
Sequence (P41143 whole entry): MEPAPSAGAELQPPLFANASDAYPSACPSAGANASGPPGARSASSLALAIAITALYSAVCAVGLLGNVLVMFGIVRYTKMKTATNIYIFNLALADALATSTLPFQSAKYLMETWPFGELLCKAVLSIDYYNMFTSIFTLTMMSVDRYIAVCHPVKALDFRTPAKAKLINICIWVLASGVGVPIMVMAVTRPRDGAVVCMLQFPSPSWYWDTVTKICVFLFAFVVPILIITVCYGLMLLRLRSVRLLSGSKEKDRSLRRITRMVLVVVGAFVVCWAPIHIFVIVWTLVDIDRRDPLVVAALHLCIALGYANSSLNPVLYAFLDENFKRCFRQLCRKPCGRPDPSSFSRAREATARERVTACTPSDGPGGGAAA
// pKi lookup, one value per entry
# reply with the number alone; pKi is -log10 of concentration in mol/L

Here's what some known entries look like.
{"test smiles": "O=C(N[C@@H]1CC[C@@]2(O)[C@H]3Cc4ccc(O)c5c4[C@@]2(CCN3CC2CC2)[C@H]1O5)c1ccnc(Br)c1", "system": "Delta-type opioid receptor (Homo sapiens, UniProt P41143)", "pKi": 6.76}
{"test smiles": "O=C(CCc1ccncc1)N[C@@H]1CC[C@@]2(O)[C@H]3Cc4ccc(O)c5c4[C@@]2(CCN3CC2CC2)[C@H]1O5", "system": "Delta-type opioid receptor (Homo sapiens, UniProt P41143)", "pKi": 6.53}

Next item in the queue.
Request: Record request: pKi value, item `Cc1cnccc1C(=O)N[C@@H]1CC[C@@]2(O)[C@H]3Cc4ccc(O)c5c4[C@@]2(CCN3CC2CC2)[C@H]1O5`
Response: 6.56

----------
test: Selectivity ratio of Ki for delta opioid receptor to Ki for mu opioid receptor
Listing of entries alongside the reported Ratio Ki.
Field format: numeric only.

Below, each entry is followed by its recorded Ratio Ki result.
{"test smiles": "O=C(N[C@@H]1CC[C@@]2(O)[C@H]3Cc4ccc(O)c5c4[C@@]2(CCN3CC2CC2)[C@H]1O5)c1ccnc(Cl)c1", "Ratio Ki": 6110}
{"test smiles": "O=C(N[C@@H]1CC[C@@]2(O)[C@H]3Cc4ccc(O)c5c4[C@@]2(CCN3CC2CC2)[C@H]1O5)c1ccncc1Cl", "Ratio Ki": 746}
{"test smiles": "O=C(CCc1ccncc1)N[C@@H]1CC[C@@]2(O)[C@H]3Cc4ccc(O)c5c4[C@@]2(CCN3CC2CC2)[C@H]1O5", "Ratio Ki": 516}
{"test smiles": "Cc1cc(C(=O)N[C@@H]2CC[C@@]3(O)[C@H]4Cc5ccc(O)c6c5[C@@]3(CCN4CC3CC3)[C@H]2O6)ccn1", "Ratio Ki": 232}

Request: Would you kindly share the measured Ratio Ki for `CN1CCC(C(=O)N[C@@H]2CC[C@@]3(O)[C@H]4Cc5ccc(O)c6c5[C@@]3(CCN4CC3CC3)[C@H]2O6)CC1` ?
Response: 2970

Request: Same read-out for `O=C(N[C@@H]1CC[C@@]2(O)[C@H]3Cc4ccc(O)c5c4[C@@]2(CCN3CC2CC2)[C@H]1O5)c1ccnc(Br)c1` ?
Response: 276

Request: Likewise for `O=C(Cc1ccncc1)N[C@@H]1CC[C@@]2(O)[C@H]3Cc4ccc(O)c5c4[C@@]2(CCN3CC2CC2)[C@H]1O5` ?
Response: 1020

Request: What about this compound? `Cc1cnccc1C(=O)N[C@@H]1CC[C@@]2(O)[C@H]3Cc4ccc(O)c5c4[C@@]2(CCN3CC2CC2)[C@H]1O5`
Response: 470

Request: // repeat for `O=C(N[C@@H]1CC[C@@]2(O)[C@H]3Cc4ccc(O)c5c4[C@@]2(CCN3CC2CC2)[C@H]1O5)c1ccncc1Br` and report
Response: 285

----------
Below are pKi values measured for Mu-type opioid receptor (Homo sapiens, UniProt P35372).
Note: pKi values are expressed as the negative base-10 logarithm of concentration in M.

Request: pKi lookup needed for `O=C(N[C@@H]1CC[C@@]2(O)[C@H]3Cc4ccc(O)c5c4[C@@]2(CCN3CC2CC2)[C@H]1O5)c1ccncc1Cl` , thanks.
Response: 9.17

Request: Moving on to `Cc1cc(C(=O)N[C@@H]2CC[C@@]3(O)[C@H]4Cc5ccc(O)c6c5[C@@]3(CCN4CC3CC3)[C@H]2O6)ccn1`
Response: 9.41

Request: Field entry: `Cc1cnccc1C(=O)N[C@@H]1CC[C@@]2(O)[C@H]3Cc4ccc(O)c5c4[C@@]2(CCN3CC2CC2)[C@H]1O5`
Response: 9.24

Request: Same lookup for `O=C(Cc1ccncc1)N[C@@H]1CC[C@@]2(O)[C@H]3Cc4ccc(O)c5c4[C@@]2(CCN3CC2CC2)[C@H]1O5` , please.
Response: 9.07

Request: // query: `O=C(CCc1ccncc1)N[C@@H]1CC[C@@]2(O)[C@H]3Cc4ccc(O)c5c4[C@@]2(CCN3CC2CC2)[C@H]1O5`
Response: 9.24

Request: Could you do the same for `O=C(N[C@@H]1CC[C@@]2(O)[C@H]3Cc4ccc(O)c5c4[C@@]2(CCN3CC2CC2)[C@H]1O5)c1ccncc1Br` , please?
Response: 9.35

Request: One more molecule: `O=C(N[C@@H]1CC[C@@]2(O)[C@H]3Cc4ccc(O)c5c4[C@@]2(CCN3CC2CC2)[C@H]1O5)c1ccnc(Cl)c1`
Response: 10.00

----------
target: Mu-type opioid receptor (Homo sapiens)
Sequence (P35372 whole entry): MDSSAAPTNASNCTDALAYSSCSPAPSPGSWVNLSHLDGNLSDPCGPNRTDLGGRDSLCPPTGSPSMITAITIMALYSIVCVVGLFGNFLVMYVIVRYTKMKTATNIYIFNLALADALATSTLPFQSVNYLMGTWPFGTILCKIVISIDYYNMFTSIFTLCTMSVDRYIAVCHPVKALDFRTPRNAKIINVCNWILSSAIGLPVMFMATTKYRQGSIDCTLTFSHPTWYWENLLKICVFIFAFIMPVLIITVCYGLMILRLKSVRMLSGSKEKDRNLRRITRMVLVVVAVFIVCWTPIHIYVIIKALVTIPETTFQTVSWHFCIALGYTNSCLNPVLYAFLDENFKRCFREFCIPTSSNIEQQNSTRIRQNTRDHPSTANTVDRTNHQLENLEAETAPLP
readout name: pKi
FYI, pKi means -log10 of a concentration in mol per litre.

Request: Give pKi (Mu-type opioid receptor (Homo sapiens)) of the following compound: `CN1CCC(C(=O)N[C@@H]2CC[C@@]3(O)[C@H]4Cc5ccc(O)c6c5[C@@]3(CCN4CC3CC3)[C@H]2O6)CC1`
Response: 9.06

Request: Would you kindly repeat that for `O=C(CNC(=O)c1ccncc1)N[C@@H]1CC[C@@]2(O)[C@H]3Cc4ccc(O)c5c4[C@@]2(CCN3CC2CC2)[C@H]1O5` ?
Response: 9.14

Request: Repeat with `O=C(N[C@@H]1CC[C@@]2(O)[C@H]3Cc4ccc(O)c5c4[C@@]2(CCN3CC2CC2)[C@H]1O5)c1ccnc(Br)c1`
Response: 9.20

----------
Overview of recorded Ratio Ki for various molecules
assay: Selectivity ratio of Ki for kappa opioid receptor to Ki for mu opioid receptor
Reply: number alone, nothing else.

Example cases with answers are listed next.
{"test smiles": "O=C(N[C@@H]1CC[C@@]2(O)[C@H]3Cc4ccc(O)c5c4[C@@]2(CCN3CC2CC2)[C@H]1O5)c1ccncc1Br", "readout name": "Ratio Ki", "endpoint value": 6.3}
{"test smiles": "O=C(Cc1ccncc1)N[C@@H]1CC[C@@]2(O)[C@H]3Cc4ccc(O)c5c4[C@@]2(CCN3CC2CC2)[C@H]1O5", "readout name": "Ratio Ki", "endpoint value": 10.6}
{"test smiles": "Cc1cc(C(=O)N[C@@H]2CC[C@@]3(O)[C@H]4Cc5ccc(O)c6c5[C@@]3(CCN4CC3CC3)[C@H]2O6)ccn1", "readout name": "Ratio Ki", "endpoint value": 1.5}

Note: attention shifts to another entry.
Request: Requested read-out: Ratio Ki. Entry: `O=C(N[C@@H]1CC[C@@]2(O)[C@H]3Cc4ccc(O)c5c4[C@@]2(CCN3CC2CC2)[C@H]1O5)c1ccnc(Cl)c1`
Response: 1.5

----------
experiment: Selectivity ratio of Ki for kappa opioid receptor to Ki for mu opioid receptor
readout name: Ratio Ki
Simply state the number, no unit and no words.

Below are worked cases with known answers.
{"test smiles": "O=C(CCc1ccncc1)N[C@@H]1CC[C@@]2(O)[C@H]3Cc4ccc(O)c5c4[C@@]2(CCN3CC2CC2)[C@H]1O5", "Ratio Ki": 2.9}
{"test smiles": "Cc1cnccc1C(=O)N[C@@H]1CC[C@@]2(O)[C@H]3Cc4ccc(O)c5c4[C@@]2(CCN3CC2CC2)[C@H]1O5", "Ratio Ki": 166}
{"test smiles": "CN1CCC(C(=O)N[C@@H]2CC[C@@]3(O)[C@H]4Cc5ccc(O)c6c5[C@@]3(CCN4CC3CC3)[C@H]2O6)CC1", "Ratio Ki": 7.5}
{"test smiles": "O=C(N[C@@H]1CC[C@@]2(O)[C@H]3Cc4ccc(O)c5c4[C@@]2(CCN3CC2CC2)[C@H]1O5)c1ccnc(Br)c1", "Ratio Ki": 0.3}

Request: Request the reported Ratio Ki associated with `O=C(N[C@@H]1CC[C@@]2(O)[C@H]3Cc4ccc(O)c5c4[C@@]2(CCN3CC2CC2)[C@H]1O5)c1ccncc1Cl`
Response: 29.6

----------
target: UniProt:P35372; assay: Agonist activity against mu opioid receptor expressed in CHO cells assessed as stimulation of [35S]-GTPgammaS binding
Labelling: EC50 reported below 2 nM becomes met; at or above becomes not met.

{"test smiles": "O=C(Cc1ccncc1)N[C@@H]1CC[C@@]2(O)[C@H]3Cc4ccc(O)c5c4[C@@]2(CCN3CC2CC2)[C@H]1O5", "group": "not met"}
{"test smiles": "CN1CCC(C(=O)N[C@@H]2CC[C@@]3(O)[C@H]4Cc5ccc(O)c6c5[C@@]3(CCN4CC3CC3)[C@H]2O6)CC1", "group": "not met"}
{"test smiles": "O=C(CCc1ccncc1)N[C@@H]1CC[C@@]2(O)[C@H]3Cc4ccc(O)c5c4[C@@]2(CCN3CC2CC2)[C@H]1O5", "group": "met"}
{"test smiles": "O=C(N[C@@H]1CC[C@@]2(O)[C@H]3Cc4ccc(O)c5c4[C@@]2(CCN3CC2CC2)[C@H]1O5)c1ccnc(Br)c1", "group": "met"}
{"test smiles": "O=C(N[C@@H]1CC[C@@]2(O)[C@H]3Cc4ccc(O)c5c4[C@@]2(CCN3CC2CC2)[C@H]1O5)c1ccncc1Cl", "group": "not met"}
{"test smiles": "Cc1cnccc1C(=O)N[C@@H]1CC[C@@]2(O)[C@H]3Cc4ccc(O)c5c4[C@@]2(CCN3CC2CC2)[C@H]1O5", "group": "met"}

Request: Hello, I'm reviewing records and need to know if EC50 of `O=C(N[C@@H]1CC[C@@]2(O)[C@H]3Cc4ccc(O)c5c4[C@@]2(CCN3CC2CC2)[C@H]1O5)c1ccnc(Cl)c1` is below 2 nM. Could you check?
Response: met
